measured_target: T1, human CD71 extracellular domain (human, UniProt P02786 89-760, biotinylated)
T1 construct: also called hCD71; CD71-ECD
T1 sequence (P02786 89-760): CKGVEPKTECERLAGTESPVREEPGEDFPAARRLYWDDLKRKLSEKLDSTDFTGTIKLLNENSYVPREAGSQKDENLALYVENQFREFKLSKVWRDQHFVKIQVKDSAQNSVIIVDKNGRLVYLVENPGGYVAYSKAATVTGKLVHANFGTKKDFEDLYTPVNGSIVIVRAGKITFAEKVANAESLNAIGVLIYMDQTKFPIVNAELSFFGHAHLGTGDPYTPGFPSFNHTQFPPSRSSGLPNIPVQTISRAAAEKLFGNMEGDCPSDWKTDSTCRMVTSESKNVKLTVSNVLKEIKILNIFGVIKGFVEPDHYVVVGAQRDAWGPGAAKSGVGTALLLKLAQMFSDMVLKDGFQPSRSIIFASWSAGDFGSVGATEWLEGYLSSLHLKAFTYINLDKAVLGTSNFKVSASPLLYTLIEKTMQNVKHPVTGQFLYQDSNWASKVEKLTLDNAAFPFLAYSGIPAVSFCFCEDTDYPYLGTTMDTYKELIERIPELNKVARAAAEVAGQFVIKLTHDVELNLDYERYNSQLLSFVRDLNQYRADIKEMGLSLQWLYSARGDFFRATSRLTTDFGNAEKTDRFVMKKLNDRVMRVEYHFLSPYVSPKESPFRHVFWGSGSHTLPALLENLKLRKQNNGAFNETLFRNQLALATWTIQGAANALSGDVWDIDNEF
assay_procedure: primary ELISA; also: test concentration or dose not given here
measured_quantity: RLU (RLU)
Note: unit RLU is implicit; provide only the numeric part.

Example results:
[[record]]
binder = "CD71-binding FN3 domain of SEQ ID NO: 480 (designed binder) MLPAPKNLVVSRVTEDSARLSWTAPDAAFDSFEIDYAEDIREGEAIALVVPGSERSYDLTGLKPGTEYWVSIGGVKGGTWSRPLFAPFTT"
measured_quantity = "RLU"
result = "1.66e+06"

[[record]]
binder = "CD71-binding FN3 domain of SEQ ID NO: 544 (designed binder) MLPAPKNLVVSRVTEDSARLSWTAPDAAFDSFFIGYLEPQPPGEAIALLVPGSERSYDLTGLKPGTEYNVTIQGVKGGFPSHPLSASFTT"
measured_quantity = "RLU"
result = "4.04e+06"


CD71-binding FN3 domain of SEQ ID NO: 507 (designed binder) MLPAPKNLVVSRVTEDSARLSWTAPDAAFDSFFIGYLEPQPPGEAIHLLVPGSERSYDLTGLKPGTEYNVTIQGVKGGFPSMPLSAIFTT yielded RLU of 3.52e+06

src = patent US20260151494A1
